system_under_test: 5-hydroxytryptamine receptor 2B (Homo sapiens); note: assay procedure not described here
Sequence (P41595 whole entry): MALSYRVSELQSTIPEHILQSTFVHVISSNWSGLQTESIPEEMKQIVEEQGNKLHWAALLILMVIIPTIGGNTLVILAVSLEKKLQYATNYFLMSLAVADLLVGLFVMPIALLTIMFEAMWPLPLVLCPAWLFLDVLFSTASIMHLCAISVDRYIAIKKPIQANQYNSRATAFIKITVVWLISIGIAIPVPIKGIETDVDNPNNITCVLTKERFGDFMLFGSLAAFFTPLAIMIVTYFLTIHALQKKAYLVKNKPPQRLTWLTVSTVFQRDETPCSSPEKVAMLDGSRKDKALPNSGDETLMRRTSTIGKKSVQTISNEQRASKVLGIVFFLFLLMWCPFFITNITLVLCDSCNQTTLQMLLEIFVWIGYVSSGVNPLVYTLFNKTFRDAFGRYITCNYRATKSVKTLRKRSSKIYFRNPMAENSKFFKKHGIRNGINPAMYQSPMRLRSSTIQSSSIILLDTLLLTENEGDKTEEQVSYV
Type: functional, cell-based
reported_property: AC50

As a guide, the following entries are already answered.
compound: CCCCC1C(=O)N(c2ccccc2)N(c2ccccc2)C1=O
system_under_test: 5-hydroxytryptamine receptor 2B (Homo sapiens); note: assay procedure not described here
AC50: > 10 µM
//
compound: C[C@]12CCC(=O)C(O)=C1CC[C@@H]1[C@@H]2CC[C@]2(C)C(=O)CC[C@@H]12
system_under_test: 5-hydroxytryptamine receptor 2B (Homo sapiens); note: assay procedure not described here
AC50: > 30 µM
//
compound: CCCN[C@H]1CCc2nc(N)sc2C1 [PRAMIPEXOLE]
system_under_test: 5-hydroxytryptamine receptor 2B (Homo sapiens); note: assay procedure not described here
AC50: > 10 µM
//
compound: O=C1CN=C(c2ccccn2)c2cc(Br)ccc2N1
system_under_test: 5-hydroxytryptamine receptor 2B (Homo sapiens); note: assay procedure not described here
AC50: > 10 µM
//
compound: CCCCCCCCCCCCCCCCCCCCCC(=O)Nc1ccn([C@@H]2O[C@H](CO)[C@@H](O)[C@@H]2O)c(=O)n1
system_under_test: 5-hydroxytryptamine receptor 2B (Homo sapiens); note: assay procedure not described here
AC50: > 30 µM
//
compound: COc1ccc2nc3cc(Cl)ccc3c(Nc3cc(CN4CCCC4)c(O)c(CN4CCCC4)c3)c2n1
system_under_test: 5-hydroxytryptamine receptor 2B (Homo sapiens); note: assay procedure not described here
AC50: > 30 µM

Proceed to the following item.
Which AC50 value belongs to C=CC[C@@H]1/C=C(\C)C[C@H](C)C[C@H](OC)[C@H]2O[C@@](O)(C(=O)C(=O)N3CCCC[C@H]3C(=O)O[C@H](/C(C)=C/[C@@H]3CC[C@@H](O)[C@H](OC)C3)[C@H](C)[C@@H](O)CC1=O)[C@H](C)C[C@@H]2OC [TACROLIMUS ANHYDROUS] ?
> 30 µM

Ref: ChEMBL document CHEMBL5291721
